# credit: patent US8735322B2

System: Solanum nigrum (SOLNI)
PROTOCOL_TEXT: Example B pre-emergence herbicidal activity, glasshouse pot test
Format: in vivo
CONDITION_CONTEXT: 312 h, rate 1000 g/ha, evaluated after 13 days, read-out: herbicidal damage SOLNI (100=total damage to plant; 0=no damage to plant)
Experimental: Seeds of a variety of test species were sown in standard soil in pots. […] After 13 days for pre and post-emergence, the test was evaluated (100=total damage to plant; 0=no damage to plant). […]
ENDPOINT: pest or weed control at 1000 g/ha (%)
Unit % implied. Number only.

Reference set, count: 2
COMPOUND	pest or weed control at 1000 g/ha / %
Cc1ccc(-c2ccc(Cl)cc2)cc1C1=C(O)CC(CC2OCCCCO2)CC1=O (stereo not drawn)	0
COCC1COC(CC2CC(=O)C(c3cc(-c4ccc(Cl)cc4)ccc3C)=C(O)C2)O1 (stereo not drawn)	0

Lookup result for Cc1ccc(-c2ccc3c(c2)OCO3)cc1C1=C(O)CC(CC2CCOCC2)CC1=O (stereo not drawn) ; measured pest or weed control at 1000 g/ha: 0

###

Tested on: Avena fatua (AVEFA)
PROTOCOL_TEXT: Example A pre-emergence herbicidal activity, glasshouse pot test
Format: in vivo
CONDITION_CONTEXT: 480 h, rate 500 g/ha, evaluated 20 days later, 100=total damage to plant, 0=no damage to plant
Consider the following compounds and their measured pest or weed control at 500 g/ha readings.
Unit % implied. Number only.

Reference set, count: 3
COMPOUND	SYSTEM_TESTED	pest or weed control at 500 g/ha / %
CCc1ccc(-c2ccc(Cl)cc2)cc1C1=C(O)CC(CC2CCOCC2)CC1=O (stereo not shown) [Compound A-20]	Avena fatua (AVEFA)	10
CCc1cc(C)cc(CC)c1C1=C(O)CC(CC2CCOCC2)CC1=O (stereo not shown) [Compound A-5]	Avena fatua (AVEFA)	100
CCc1cc(C)cc(CC)c1C1=C(O)CC(C(C)C2CCOCC2)CC1=O (stereo not shown) [Compound A-11]	Avena fatua (AVEFA)	100

Continue with the next compound.
// pest or weed control at 500 g/ha (Avena fatua (AVEFA)) for Cc1cc(C)c(C2=C(OC(=O)C(C)(C)C)CC(CC3CCOC3)CC2=O)c(C)c1 (stereo not shown) [Compound B-1] = 50

###

Consider the following compounds and their measured pest or weed control at 1000 g/ha readings.
System: Solanum nigrum (SOLNI)
PROTOCOL_TEXT: Example B pre-emergence herbicidal activity, glasshouse pot test
Assay type: in vivo
CONDITION_CONTEXT: 312 h, rate 1000 g/ha, evaluated after 13 days, read-out: herbicidal damage SOLNI (100=total damage to plant; 0=no damage to plant)
Please answer using the number first and the unit second.

Reference set, count: 6
COMPOUND	pest or weed control at 1000 g/ha
Cc1ccc(-c2cc(C)c(C3=C(O)CC(CC4CCOCC4)CC3=O)c(C)c2)cc1 (stereo not shown)	0%
CCc1cc(-c2ccc(Cl)cc2)cc(CC)c1C1=C(O)CC(CC2CCOCC2)CC1=O (stereo not shown)	0%
Cc1ccc(-c2ccc(Cl)cc2)cc1C1=C(O)CC(CC2OCC(C3CCOCC3)O2)CC1=O (stereo not shown)	0%
Cc1ccc(-c2ccc(Cl)cc2)cc1C1=C(O)CC(CC2OCC3(CCOCC3)O2)CC1=O (stereo not shown)	0%
Cc1ccc(-c2ccc(Cl)cc2)cc1C1=C(O)CC(CC2OCCCO2)CC1=O (stereo not shown)	0%
Cc1cc(-c2ccc(C)c(C3=C(O)CC(CC4CCOCC4)CC3=O)c2)ccc1F (stereo not shown)	0%

Continue with the next compound.
Lookup result for Cc1cc(-c2ccccc2)cc(C)c1C1=C(O)CC(CC2CCOCC2)CC1=O (stereo not shown) ; measured pest or weed control at 1000 g/ha: 0%
